Test system: CCRF-CEM
Protocol description: Antiproliferative activity against human CCRF-CEM cells
Type: functional, cell-based
pIC50: −log10 of the molar value.
The entries below are paired with their reported pIC50.

{"columns": ["Compound", "pIC50"],
 "data": [
  ["Cn1cc(NC(=O)c2cc(NC(=O)c3cc(NC(=O)[C@@H](N)CS)cn3C)cn2C)cc1C(=O)NCCC(=N)N", 4.44],
  ["Cn1cc(NC(=O)c2cc(NC(=O)c3cc(NC(=O)C(N)CN)cn3C)cn2C)cc1C(=O)NCCC(=N)N (configuration not stated)", 4.39]
]}

---

Protocol description: Inhibition of telomerase activity in human melanoma cell extracts
pIC50: −log10 of the molar value.
Measured parameter: pIC50

{"columns": ["Chemical structure", "Numeric readout"],
 "data": [
  ["Cn1cc(NC(=O)c2cc(NC(=O)c3cc(NC(=O)c4cc(NC(=O)c5cc(NC=O)cn5C)cn4C)cn3C)cn2C)cc1C(=O)NCCC(=N)N", 4.62]
]}

---

Tested on: K562
Protocol description: Antiproliferative activity against human K562 cells
Type: functional, cell-based
pIC50: −log10 of the molar value.

{"columns": ["Molecule", "Measurement qualifier", "pIC50"],
 "data": [
  ["Cn1cc(NC(=O)c2cc(NC(=O)c3cc(NC(=O)CCCn4cc(F)c(=O)[nH]c4=O)cn3C)cn2C)cc1C(=O)NCCC(=N)N", "=", 4.09],
  ["Cn1cc(NC(=O)c2cc(NC(=O)c3cc(NC(=O)CCCCCCn4cc(F)c(=O)[nH]c4=O)cn3C)cn2C)cc1C(=O)NCCC(=N)N", "=", 4.30],
  ["Cn1cc(NC(=O)c2cc(NC(=O)c3cc(NC(=O)Cn4cc(F)c(=O)[nH]c4=O)cn3C)cn2C)cc1C(=O)NCCC(=N)N", "<", 3.70],
  ["Cn1cc(NC(=O)c2cc(NC(=O)c3cc(NC(=O)[C@@H](N)CS)cn3C)cn2C)cc1C(=O)NCCC(=N)N", "=", 4.62],
  ["Cn1cc(NC(=O)c2cc(NC(=O)c3cc(NC(=O)CCCCn4cc(F)c(=O)[nH]c4=O)cn3C)cn2C)cc1C(=O)NCCC(=N)N", "=", 3.82],
  ["COc1cc2c(cc1OCCC(=O)Nc1cc(C(=O)NCCC(=N)N)n(C)c1)N=C[C@@H]1CCCN1C2=O", "<", 4.00],
  ["Cn1cc(NC(=O)c2cc(NC(=O)c3cc(NC(=O)CCn4cc(F)c(=O)[nH]c4=O)cn3C)cn2C)cc1C(=O)NCCC(=N)N", "=", 4.64],
  ["COc1cc2c(cc1O)N=C[C@@H]1CCCN1C2=O", "=", 6.00],
  ["Cn1cc(NC(=O)c2cc(NC(=O)c3cc(NC(=O)C(N)CN)cn3C)cn2C)cc1C(=O)NCCC(=N)N (stereo not given)", "=", 4.66],
  ["Cn1cc(NC(=O)c2cc(NC(=O)c3cc(NC(=O)CCCCCn4cc(F)c(=O)[nH]c4=O)cn3C)cn2C)cc1C(=O)NCCC(=N)N", "=", 4.30]
]}
